Each record here notes measured efflux ratio at 3.5 h, 1 µM.
# target_entity: MDR1 (ABCB1, P-glycoprotein) (Homo sapiens)
# Sequence (P08183 whole entry): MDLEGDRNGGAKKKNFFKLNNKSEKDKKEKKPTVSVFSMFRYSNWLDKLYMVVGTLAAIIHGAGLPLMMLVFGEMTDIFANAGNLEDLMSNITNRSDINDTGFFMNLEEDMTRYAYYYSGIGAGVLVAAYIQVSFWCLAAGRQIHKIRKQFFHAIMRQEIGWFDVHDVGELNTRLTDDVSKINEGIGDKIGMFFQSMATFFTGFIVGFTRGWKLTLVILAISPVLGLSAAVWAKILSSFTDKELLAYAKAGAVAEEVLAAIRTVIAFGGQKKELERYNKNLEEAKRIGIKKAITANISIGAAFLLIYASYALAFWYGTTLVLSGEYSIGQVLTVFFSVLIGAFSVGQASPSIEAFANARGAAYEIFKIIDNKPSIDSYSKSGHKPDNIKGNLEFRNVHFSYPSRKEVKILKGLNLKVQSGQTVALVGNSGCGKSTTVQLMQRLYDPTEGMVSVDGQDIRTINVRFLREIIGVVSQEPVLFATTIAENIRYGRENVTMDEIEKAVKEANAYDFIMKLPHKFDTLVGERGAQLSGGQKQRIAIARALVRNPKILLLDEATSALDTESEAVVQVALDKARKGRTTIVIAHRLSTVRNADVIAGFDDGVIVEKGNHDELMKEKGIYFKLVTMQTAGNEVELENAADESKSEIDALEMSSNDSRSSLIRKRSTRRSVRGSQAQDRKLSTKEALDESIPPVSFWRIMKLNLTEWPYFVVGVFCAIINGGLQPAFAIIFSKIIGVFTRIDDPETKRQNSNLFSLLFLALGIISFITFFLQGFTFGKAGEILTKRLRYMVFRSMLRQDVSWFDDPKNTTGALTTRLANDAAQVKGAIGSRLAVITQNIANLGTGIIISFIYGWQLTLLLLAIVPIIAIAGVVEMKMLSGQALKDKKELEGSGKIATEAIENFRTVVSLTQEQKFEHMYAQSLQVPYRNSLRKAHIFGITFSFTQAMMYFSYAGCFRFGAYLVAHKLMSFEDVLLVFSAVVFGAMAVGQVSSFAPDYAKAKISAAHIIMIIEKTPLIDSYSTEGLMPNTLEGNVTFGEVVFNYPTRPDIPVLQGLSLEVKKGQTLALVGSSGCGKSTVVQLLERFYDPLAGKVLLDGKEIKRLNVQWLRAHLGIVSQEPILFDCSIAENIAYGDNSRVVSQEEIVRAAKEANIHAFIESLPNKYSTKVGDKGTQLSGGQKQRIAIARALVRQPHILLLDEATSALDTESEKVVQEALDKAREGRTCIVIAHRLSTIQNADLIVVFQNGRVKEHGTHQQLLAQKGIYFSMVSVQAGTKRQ
# protocol: Substrate activity at human MDR1 expressed in LLC-PK1 cells assessed as efflux ratio of permeability at 1 uM measured after 3.5 hrs by lucifer yellow based scintillation counting or HPLC method
# Type: ADME, cell-based
reported_property: efflux ratio at 3.5 h, 1 µM

1. CN1Cc2cc(Cl)ccc2-n2c(nnc2[C@H]2CC[C@H](n3nnc4ccccc43)CC2)C1 :: 10.9
2. Cc1onc([C@H]2CC[C@H](c3nnc4n3-c3ccc(Cl)cc3CN(C)C4)CC2)c1C :: 3.8
3. CN1Cc2cc(Cl)ccc2-n2c(nnc2[C@H]2CC[C@H](Nc3ccccn3)CC2)C1 :: 14
